Sourced from patent US20200407397A1

molecular target: recombinant LDHA (human, UniProt P00338 1-332)
MEASUREMENT TYPE: Ki (nM)
State the answer as a number, implicitly in nM.

Quick one: Ki of AQRMNTAFTP [FLCN-10 peptide] ?
57.4
